All figures here come from ChEMBL document CHEMBL1135503.

system: Trypanosoma brucei rhodesiense; assay: 50% antitrypanosomal activity against Trypanosoma rhodesiense; format: functional, organism-based; settings: Trypanosoma brucei; read-out: IC50
Would you kindly list IC50 for each of these compounds?
Give your result in µg/mL as a bare value.

For Nc1nc(N)nc(Nc2ccc([As]3SCC(CO)S3)cc2)n1 (centres undefined) the compound record lists IC50 as 0.0026

For CCCCC/C=C/C(=O)O[C@H]1C[C@@H]2[C@H](CCCCC(O)CCC)CCC[C@@H]2N(C(=O)c2ccc(Br)cc2)[C@@H]1C (some centres undefined) the compound record lists IC50 as 36.9

For CCCCC/C=C/C(=O)O[C@H]1C[C@@H]2[C@H](CCCCC(O)CCC)CCC[C@@H]2N[C@@H]1C (some centres undefined) the compound record lists IC50 as 0.38

For CCCCC/C=C/C(=O)O[C@H]1C[C@@H]2[C@H](CCCCC(O)CCC)CCC[C@@H]2N[C@H]1C (some centres undefined) the compound record lists IC50 as 0.23
